# PROTOCOL: Mycobacterium tuberculosis growth inhibition, primary screen (AID 1259343)
# RECORDED_CONDITIONS: at 10 µM, active compounds read high
Among all 6,200 compounds or so, about 2,900 (47%) were called active. So high a share suggests a set chosen from earlier hits. The list shows a part of the results.
A collection of compounds and their measured inhibition
Supply the numeric figure in %, leaving out any unit text.

Look over these answered cases.
O=S(=O)(Nc1cnc(-c2ccccc2)nc1)c1ccc(F)c(F)c1    58.3
Brc1ccc(OCCOc2cccc(-n3cnnn3)c2)cc1    69.1
O=S(=O)(Nc1ccc(OC(F)(F)F)cc1)c1ccc(F)c(F)c1    16
CN(Cc1ccsc1)C(=O)c1cccc2c(=O)c3ccccc3[nH]c12    43.6
CCOc1ccc(-n2c(C)cc(C(=O)COc3cccc(-n4cnnn4)c3)c2C)cc1    89.6

Exercise: Specify reported inhibition for the compound shown: Cc1cccc(N2CCN(CCNc3cncc(Cl)n3)CC2)c1
Solution: 86.1

Exercise: Using the record for O=C(Nc1ccc2c(c1)CCC2)C1CCN(C(=O)OCC(F)(F)F)CC1 , state its measured inhibition.
Solution: 49.5

Exercise: Check the records and state inhibition for O=C(CSC1=NS(=O)(=O)c2ccccc2N1)Nc1ccccc1
Solution: 31.9

Exercise: Determine from records and report inhibition for CC(=O)Oc1ccc2c(=O)oc(COc3ccc(C)c(C)c3)nc2c1
Solution: 60.8

Exercise: Fill in inhibition for record O=C(Cn1nnc(-c2ccccc2Cl)n1)Nc1ccc(I)cc1
Solution: 32.1

Exercise: Return reported inhibition. Input compound: O=c1[nH]c2ccccc2c(O)c1Sc1ccccc1
Solution: 82.5

Data provenance is PubChem BioAssay AID1259343.
